# Test system: UO-31 renal
# procedure summary: NCI tumour cell line growth inhibition, 48 h
Overview of reported TGI across a group of molecules:

Previously resolved entries follow.
O=C(Cn1ccnc1[N+](=O)[O-])c1ccc(F)cc1	> 100 µM
c1ccc2c(c1)ncn2C1CCCCO1 (stereo not drawn)	> 100 µM

Give reported TGI value for COCCCNC(=O)CC(=O)NCCCOC
> 100 µM

###

# Test system: M14 melanoma
# procedure summary: NCI tumour cell line growth inhibition, 48 h
Overview of reported TGI across a group of molecules:

Previously resolved entries follow.
CC(=C(C(N)=O)C(N)=O)C1C=C(c2cccs2)CC(c2ccc(Cl)cc2)=C1O (stereo not drawn)	> 100 µM
O=c1oc2cc(O)ccc2c(O)c1C(c1cccnc1)c1c(O)c2ccc(O)cc2oc1=O	> 100 µM

Give reported TGI value for Cn1c2ccccc2c2c(=O)[nH]c(=O)[nH]c21
> 100 µM

Give reported TGI value for COC(=O)CCC(=O)CC(=O)C(=O)Nc1c(Cl)cc([N+](=O)[O-])cc1Cl
> 100 µM

Give reported TGI value for COc1cc(OC)c(/C=C/c2cnc3ccccc3n2)c(OC)c1
> 10 µM

Give reported TGI value for Cc1ccc(-n2[nH]nc(C#N)c2=O)cc1
> 100 µM

Give reported TGI value for COc1cc(OC)c(C2CC=Cc3c(OC)cc(OC)c(OC)c32)cc1OC (stereo not drawn)
> 100 µM

Give reported TGI value for CCSc1cc(=O)n(C)c(=O)n1C
> 100 µM

Data provenance is PubChem BioAssay (NCI).
